Origin of the recorded values: ChEMBL document CHEMBL4422689

- system: Amyloid-beta precursor protein (Homo sapiens)
- procedure.summary: Inhibition of HFIP-pretreated human amyloid beta (1 to 42) self-induced aggregation at 25 uM measured after 24 hrs by thioflavin-T fluorescence assay relative to control
Label true when inhibition is at or above 20%; anything below gets false.

Take a look at these entries with their results.
[[record]]
compound = "CCN(CC)Cc1cc(-c2ccc(C(C)C(=O)OC)cc2F)ccc1O (stereo not given)"
system = "Amyloid-beta precursor protein (Homo sapiens)"
label = "false"

[[record]]
compound = "COC(=O)C(C)c1ccc(-c2ccc(O)c(CN(C)C)c2)c(F)c1 (stereo not given)"
system = "Amyloid-beta precursor protein (Homo sapiens)"
label = "true"

[[record]]
compound = "COC(=O)C(C)c1ccc(-c2ccc(O)c(CN(C)Cc3ccccc3)c2)c(F)c1 (stereo not given)"
system = "Amyloid-beta precursor protein (Homo sapiens)"
label = "true"


Tell me whether inhibition is at least 20% here: COC(=O)C(C)c1ccc(-c2ccc(O)c(CN3CCCCC3)c2)c(F)c1 (stereo not given)
false

Tell me whether inhibition is at least 20% here: COC(=O)C(C)c1ccc(-c2ccc(O)c(CN3CCCC3)c2)c(F)c1 (stereo not given)
false

###

- system: Butyrylcholinesterase (BuChE) (Rattus norvegicus, UniProt Q9JKC1)
- Sequence (Q9JKC1 whole entry): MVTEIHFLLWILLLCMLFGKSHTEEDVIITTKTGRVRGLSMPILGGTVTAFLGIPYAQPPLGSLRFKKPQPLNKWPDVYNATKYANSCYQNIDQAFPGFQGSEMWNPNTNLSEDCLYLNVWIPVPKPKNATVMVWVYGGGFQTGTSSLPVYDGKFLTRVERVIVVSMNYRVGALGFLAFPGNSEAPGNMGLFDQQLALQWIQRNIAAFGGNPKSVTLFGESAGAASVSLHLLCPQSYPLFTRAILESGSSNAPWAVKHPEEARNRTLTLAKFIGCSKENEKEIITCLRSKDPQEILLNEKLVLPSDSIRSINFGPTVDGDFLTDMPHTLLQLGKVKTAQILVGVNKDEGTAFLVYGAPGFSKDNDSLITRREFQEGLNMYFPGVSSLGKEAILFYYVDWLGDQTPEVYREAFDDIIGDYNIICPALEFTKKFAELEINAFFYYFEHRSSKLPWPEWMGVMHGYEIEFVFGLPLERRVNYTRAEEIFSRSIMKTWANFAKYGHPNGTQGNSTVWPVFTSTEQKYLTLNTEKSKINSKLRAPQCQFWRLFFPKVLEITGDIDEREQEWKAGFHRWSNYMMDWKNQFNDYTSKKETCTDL
- procedure.summary: Inhibition of rat serum BuChE at 25 uM using butyrylthiocholine iodide as substrate after 15 mins by Ellman's method relative to control
- particulars: rat serum, probe butyrylthiocholine iodide
observed.property: inhibition at 0.25 h, 25 µM (%)
// return numeric value only (unit: %, not printed)

[[record]]
compound = "COC(=O)C(C)c1ccc(-c2ccc(O)c(CN3CCCC3)c2)c(F)c1 (centres undefined)"
observed_property = "inhibition at 0.25 h, 25 µM"
measured_value = 1.38

[[record]]
compound = "CCN(Cc1cc(-c2ccc(C(C)C(=O)OC)cc2F)ccc1O)Cc1ccccc1N(C)C (centres undefined)"
observed_property = "inhibition at 0.25 h, 25 µM"
measured_value = 16.3

[[record]]
compound = "CCN1CCN(Cc2cc(-c3ccc(C(C)C(=O)OC)cc3F)ccc2O)CC1 (centres undefined)"
observed_property = "inhibition at 0.25 h, 25 µM"
measured_value = 4.28

[[record]]
compound = "CCN(CC)Cc1cc(-c2ccc(C(C)C(=O)OC)cc2F)ccc1O (centres undefined)"
observed_property = "inhibition at 0.25 h, 25 µM"
measured_value = 1.58

[[record]]
compound = "CCN(Cc1cc(-c2ccc(C(C)C(=O)OC)cc2F)ccc1O)Cc1ccccc1OC (centres undefined)"
observed_property = "inhibition at 0.25 h, 25 µM"
measured_value = 5.12


// returns reported inhibition at 0.25 h, 25 µM for input COC(=O)C(C)c1ccc(-c2ccc(O)c(CN(C)C)c2)c(F)c1 (centres undefined)
2.56

// returns reported inhibition at 0.25 h, 25 µM for input COC(=O)C(C)c1ccc(-c2ccc(O)c(CN(C)Cc3ccccc3)c2)c(F)c1 (centres undefined)
1.28

// returns reported inhibition at 0.25 h, 25 µM for input COC(=O)C(C)c1ccc(-c2ccc(O)c(CN3CCCCC3)c2)c(F)c1 (centres undefined)
1.95

// returns reported inhibition at 0.25 h, 25 µM for input CCN(Cc1ccc(N(C)C)cc1)Cc1cc(-c2ccc(C(C)C(=O)OC)cc2F)ccc1O (centres undefined)
2.21

###

- procedure.summary: Inhibition of Cu2+-induced human amyloid beta (1 to 42) aggregation at 25 uM after 24 hrs by thioflavin T-based fluorometric assay relative to control
Please map values of inhibition to classes as shown: group A = under 30%, group B = from 30% up to 40%, group C = 40% and over

Take a look at these entries with their results.
[[record]]
compound = "CCN(Cc1ccccc1)Cc1cc(-c2ccc(C(C)C(=O)OC)cc2F)ccc1O (configuration not stated)"
label = "group B"

[[record]]
compound = "CCN1CCN(Cc2cc(-c3ccc(C(C)C(=O)OC)cc3F)ccc2O)CC1 (configuration not stated)"
label = "group B"


Please let me know in which category the item COC(=O)C(C)c1ccc(-c2ccc(O)c(CN3CCCC3)c2)c(F)c1 (configuration not stated) belongs.
group A

Please let me know in which category the item COC(=O)C(C)c1ccc(-c2ccc(O)c(CN(C)Cc3ccccc3)c2)c(F)c1 (configuration not stated) belongs.
group B

Please let me know in which category the item COC(=O)C(C)c1ccc(-c2ccc(O)c(CN(C)Cc3ccccc3OC)c2)c(F)c1 (configuration not stated) belongs.
group B

Please let me know in which category the item COC(=O)C(C)c1ccc(-c2ccc(O)c(CN3CCOCC3)c2)c(F)c1 (configuration not stated) belongs.
group A

Please let me know in which category the item CCN(Cc1cc(-c2ccc(C(C)C(=O)OC)cc2F)ccc1O)Cc1ccccc1N(C)C (configuration not stated) belongs.
group C

Please let me know in which category the item COC(=O)C(C)c1ccc(-c2ccc(O)c(CN(C)C)c2)c(F)c1 (configuration not stated) belongs.
group B

Please let me know in which category the item COc1cc2c(cc1OC)C(=O)C(CC1CCN(Cc3ccccc3)CC1)C2 (configuration not stated) belongs.
group A

Please let me know in which category the item CC(C(=O)O)c1ccc(-c2ccccc2)c(F)c1 (configuration not stated) [FLURBIPROFEN] belongs.
group A

Please let me know in which category the item CCN(Cc1cc(-c2ccc(C(C)C(=O)OC)cc2F)ccc1O)Cc1ccccc1OC (configuration not stated) belongs.
group C

Please let me know in which category the item COC(=O)C(C)c1ccc(-c2ccc(O)c(CN3CCN(C)CC3)c2)c(F)c1 (configuration not stated) belongs.
group A

Please let me know in which category the item COC(=O)C(C)c1ccc(-c2ccc(O)c(CN3CCCCC3)c2)c(F)c1 (configuration not stated) belongs.
group A

Please let me know in which category the item `COc1cc(/C=C/C(=O)CC(=O)/C=C/c2ccc(O)c(OC)c2)ccc1O` belongs.
group C

Please let me know in which category the item CCN(Cc1ccc(N(C)C)cc1)Cc1cc(-c2ccc(C(C)C(=O)OC)cc2F)ccc1O (configuration not stated) belongs.
group B

###

- system: Butyrylcholinesterase (BuChE) (Rattus norvegicus, UniProt Q9JKC1)
- procedure.summary: Inhibition of rat serum BuChE at 25 uM using butyrylthiocholine iodide as substrate after 15 mins by Ellman's method relative to control
- particulars: rat serum, probe butyrylthiocholine iodide
As shown below, each of these compounds has a reported inhibition at 0.25 h, 25 µM value.
// return numeric value only (unit: %, not printed)

[[record]]
compound = "COC(=O)C(C)c1ccc(-c2ccc(O)c(CN3CCN(C)CC3)c2)c(F)c1 (stereo not given)"
unit_abbrev = "%"
measured_value = 1.12

[[record]]
compound = "COC(=O)C(C)c1ccc(-c2ccc(O)c(CN(C)Cc3ccccc3OC)c2)c(F)c1 (stereo not given)"
unit_abbrev = "%"
measured_value = 3.06


// returns reported inhibition at 0.25 h, 25 µM for input COC(=O)C(C)c1ccc(-c2ccc(O)c(CN3CCN(Cc4ccccc4)CC3)c2)c(F)c1 (stereo not given)
2.86

// returns reported inhibition at 0.25 h, 25 µM for input COC(=O)C(C)c1ccc(-c2ccc(O)c(CN3CCOCC3)c2)c(F)c1 (stereo not given)
1.19

// returns reported inhibition at 0.25 h, 25 µM for input CCN(Cc1ccccc1)Cc1cc(-c2ccc(C(C)C(=O)OC)cc2F)ccc1O (stereo not given)
4.61
